UniProt:Q08499 IC50 data
Sequence (Q08499 whole entry): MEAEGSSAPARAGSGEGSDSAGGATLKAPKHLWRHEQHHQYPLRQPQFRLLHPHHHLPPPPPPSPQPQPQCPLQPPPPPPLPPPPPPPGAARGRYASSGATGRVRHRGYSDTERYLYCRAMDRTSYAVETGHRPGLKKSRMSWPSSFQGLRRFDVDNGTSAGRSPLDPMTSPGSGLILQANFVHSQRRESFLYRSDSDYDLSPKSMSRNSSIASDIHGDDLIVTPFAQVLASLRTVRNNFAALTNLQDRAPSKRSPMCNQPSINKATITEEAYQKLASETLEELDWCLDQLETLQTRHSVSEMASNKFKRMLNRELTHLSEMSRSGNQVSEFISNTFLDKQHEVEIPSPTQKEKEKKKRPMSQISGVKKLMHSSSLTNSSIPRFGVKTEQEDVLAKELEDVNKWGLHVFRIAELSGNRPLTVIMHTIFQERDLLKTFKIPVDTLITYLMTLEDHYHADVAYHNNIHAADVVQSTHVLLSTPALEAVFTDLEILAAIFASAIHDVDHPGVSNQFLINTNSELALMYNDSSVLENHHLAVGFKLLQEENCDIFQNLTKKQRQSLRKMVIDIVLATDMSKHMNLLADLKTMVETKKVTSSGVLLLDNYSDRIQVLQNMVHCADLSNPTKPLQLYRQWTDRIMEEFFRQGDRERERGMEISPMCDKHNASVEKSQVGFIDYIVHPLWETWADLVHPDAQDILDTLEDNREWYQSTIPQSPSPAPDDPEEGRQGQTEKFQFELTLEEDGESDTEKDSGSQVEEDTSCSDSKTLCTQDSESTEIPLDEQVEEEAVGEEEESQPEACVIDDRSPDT
Give the value, in units of nM, as a plain number.

chemical_string=COc1ccc(CNC(=O)c2ccc(OC(F)F)c(OC3CCCC3)c2)cc1 unit_label=nM measured=94

Would you kindly share the measured IC50 for COc1ccc(CNC(=O)c2ccc(OC(F)F)c(OCC3CC3)c2)cc1 ?
108

---

Target: Phosphodiesterase 4 (Homo sapiens, UniProt P27815+Q08499+Q07343+Q08493)
Assay: Inhibition of core catalytic domains of human PDE4 using AM-Cyclic-3',5'-AMP after 60 mins by fluorescence polarization assay
Type: protein assay
Overview of reported log10(IC50) across a group of compounds:
Could you please treat all values as log10 of IC50 in µM?

chemical_string=O=C(NCc1ccccc1)c1ccc(OC(F)F)c(OCC2CC2)c1 measured=0.32
chemical_string=COc1ccccc1OCCNC(=O)c1ccc(OC(F)F)c(OC2CCCC2)c1 measured=1.09
chemical_string=COc1ccc(CNC(=O)c2ccc(OC(F)F)c(OC3CCCC3)c2)cc1 measured=0.04
chemical_string=COc1ccc(CNC(=O)c2ccc(OC)c(OC3CCCC3)c2)cc1 measured=-0.02
chemical_string=O=C(NCc1ccccc1)c1ccc(OC(F)F)c(OC2CCCC2)c1 measured=0.34
chemical_string=COc1ccccc1OCCNC(=O)c1ccc(OC(F)F)c(OCC2CC2)c1 measured=0.84

What is its log10(IC50) for Phosphodiesterase 4 (Homo sapiens, UniProt P27815+Q08499+Q07343+Q08493)? Entry: COc1ccccc1OCCNC(=O)c1ccc(OC)c(OC2CCCC2)c1
1.26

---

Biological target: Phosphodiesterase 4 (Homo sapiens, UniProt P27815+Q08499+Q07343+Q08493)
Experiment: Inhibition of core catalytic domains of human PDE4 using AM-Cyclic-3',5'-AMP after 60 mins by fluorescence polarization assay
Format: protein assay
measure: IC50
Number first, unit second: that is the form wanted.

Known IC50 results, listed for orientation:
chemical_string=COc1ccccc1OCCNC(=O)c1ccc(OC)c(OCC2CC2)c1 measure=IC50 measured="11.1 µM"
chemical_string=COc1ccc(CNC(=O)c2ccc(OC(F)F)c(OCC3CC3)c2)cc1 measure=IC50 measured="0.41 µM"

# ---- query compound ----
Would you kindly share the measured IC50 for COc1ccc(CNC(=O)c2ccc(OC)c(OCC3CC3)c2)cc1 ?
0.91 µM

Data origin: ChEMBL document CHEMBL3627623
